Tested on: NOMO1
Assay: cell viability relative to DMSO control; higher = less cytotoxic
Conditions: RPMI 5 mM glucose + 10% FBS; 48 h; 0.0211 µM
Below is a list of entries, each paired with its recorded cell viability value.
READOUT_LABEL: cell viability (%)

> print(dat)
                                   compound  measurement
1  CC(C)(C)c1[nH]cnc1/C=c1\[nH]c(=O)/c(=C/c2ccccc2)[nH]c1=O         24.5
2  Cc1cn(-c2cc(NC(=O)c3ccc(C)c(Nc4nccc(-c5cccnc5)n4)c3)cc(C(F)(F)F)c2)cn1          127
3  CC(C)NC[C@@H](C(=O)N1CCN(c2ncnc3c2[C@H](C)C[C@H]3O)CC1)c1ccc(Cl)cc1          100
4  CC1(C)O[C@@H]2C[C@H]3[C@@H]4CCC5=CC(=O)C=C[C@]5(C)[C@H]4[C@@H](O)C[C@]3(C)[C@]2(C(=O)CO)O1         88.7
5  COc1ncc(-c2ccc3nccc(-c4ccnnc4)c3c2)cc1N[S+](=O)([O-])c1ccc(F)cc1F         79.8
6              NC/1=N/C2=C([NH]C=N2)C(=S)N1          119
7  CC(N)C12CC3CC(CC(C3)C1)C2 (centres undefined)          111
8                     COc1ccc(C(C)=O)c(O)c1          118
9  Cc1[nH]c2ccccc2c1CCNCc1ccc(/C=C/C(=O)NO)cc1          106
